Tested on: 292921-168-R-J2-PDC complex spheroid growth
assay_comment: Anticancer human tumor 292921-168-R-J2-PDC patient-derived pancreatic carcinoma cell line growth inhibition [AhR]
applied_conditions: curve of first compound; second compound 0.1 µM
outcome_measure: IC50 (nM)
Numbers only, in nM.

[
  {
    "molecule": "O=C(C=Cn1cnc(-c2cc(C(F)(F)F)cc(C(F)(F)F)c2)n1)NNc1cnccn1 + Cc1cncc(-c2nc(NCCc3c[nH]c4ccccc34)c3ncn(C(C)C)c3n2)c1",
    "measure_unit": "nM",
    "IC50": 179
  },
  {
    "molecule": "CC1(C)CCC(CN2CCN(c3ccc(C(=O)NS(=O)(=O)c4ccc(NCC5CCOCC5)c([N+](=O)[O-])c4)c(Oc4cnc5[nH]ccc5c4)c3)CC2)=C(c2ccc(Cl)cc2)C1 + Cc1ccccc1N=Nc1ccc(NC(=O)c2ccnn2C)c(C)c1",
    "measure_unit": "nM",
    "IC50": 6350
  }
]

Now consider a different molecule.
Exam item: Returns the measured IC50 for the input molecule. Input: COc1cc(C2c3cc4c(cc3C(OC3OC5COC(C)OC5C(O)C3O)C3COC(=O)C23)OCO4)cc(OC)c1O (stereo not given) + CC(CO)NC(=O)c1cc(-c2ccc(Cl)cc2)nn(-c2cnn(C)c2)c1=O
Marked response: 645

----------
Tested on: 292921-168-R-J2-PDC complex spheroid growth
assay_comment: Anticancer human tumor 292921-168-R-J2-PDC cell line growth inhibition [AhR];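 note: spheroids exposed to compounds for seven days after three days of growth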
applied_conditions: second compound 3.16 µM; first compound 0.0316 µM; stronger effect = lower value
outcome_measure: viability, T/C

A selection of reference data follows.
[
  {
    "compound": "CC[C@@]1(O)C(=O)OCc2c1cc1n(c2=O)Cc2cc3c(CN(C)C)c(O)ccc3nc2-1 + Cc1ccccc1N=Nc1ccc(NC(=O)c2ccnn2C)c(C)c1",
    "value": "32.8%"
  },
  {
    "compound": "NS(=O)(=O)OCC1CC(n2ccc3c(NC4CCc5ccccc54)ncnc32)CC1O (stereo unspecified) + Cc1ccccc1N=Nc1ccc(NC(=O)c2ccnn2C)c(C)c1",
    "value": "100%"
  },
  {
    "compound": "Nc1ccccc1NC(=O)c1ccc(CNC(=O)OCc2cccnc2)cc1 + Cc1cncc(-c2nc(NCCc3c[nH]c4ccccc34)c3ncn(C(C)C)c3n2)c1",
    "value": "43.5%"
  },
  {
    "compound": "COc1cc(C2c3cc4c(cc3C(OC3OC5COC(C)OC5C(O)C3O)C3COC(=O)C23)OCO4)cc(OC)c1O (stereo unspecified) + Cc1cncc(-c2nc(NCCc3c[nH]c4ccccc34)c3ncn(C(C)C)c3n2)c1",
    "value": "62.3%"
  },
  {
    "compound": "CC[C@@]1(O)C(=O)OCc2c1cc1n(c2=O)Cc2cc3c(CN(C)C)c(O)ccc3nc2-1 + Cc1cncc(-c2nc(NCCc3c[nH]c4ccccc34)c3ncn(C(C)C)c3n2)c1",
    "value": "44.2%"
  }
]

Now consider a different compound.
Exam item: Returns the measured viability, T/C for the input compound. Input: CC1COCCN1c1cc(-c2ccnn2C)c2ccnc(-c3ccn[nH]3)c2n1 (stereo unspecified) + CC(CO)NC(=O)c1cc(-c2ccc(Cl)cc2)nn(-c2cnn(C)c2)c1=O
Marked response: 46.9%
